Data origin: ChEMBL document CHEMBL1201862

Test system: RXF 393
test.protocol: NCI tumour cell line growth inhibition, 48 h
The source made the active and inactive calls. Rule as the data show it: active = GI50 up to about 1.1 µM and inactive = higher.
Choose the fitting class; nothing outside true = active, false = inactive is accepted.

Answered examples (3):
>  <compound>
CN1CCc2c1nc(-c1cccnc1)c1c2N(C)CC1

>  <group>
false

$$$$
>  <compound>
NC(=O)Nc1c([N+](=O)[O-])cc(C(F)(F)F)cc1[N+](=O)[O-]

>  <group>
false

$$$$
>  <compound>
O=C1CCCC2=C1CC1=C(CCCC1=O)N2c1ccc(-c2ccccc2)cc1

>  <group>
false

$$$$

Query: Hi team, can someone confirm the assay call for Cn1cnc(N2CCCC2)c(C#N)c1=O ?
Result: false

Query: Hi team, can someone confirm the assay call for CN(C)CCN(C)C(=O)C1CCCN1C(=O)OCc1ccccc1 (stereo unspecified) ?
Result: false

Query: Hi team, can someone confirm the assay call for COC(=O)C1=C(O)C(C(=O)OC)[C@]2(O)[C@H](C(=O)OC)[C@H]1C[C@@H](c1ccc(Cl)cc1)[C@H]2C(=O)OC (stereo partly specified) ?
Result: false

Query: Hi team, can someone confirm the assay call for O=C(CC(=O)c1ccccc1)C(=O)NC12CC3CC(CC(C3)C1)C2 ?
Result: false

Query: Hi team, can someone confirm the assay call for CC(C)(C)[C@H]1CO[C@]2(C)[C@@H]3C[C@@H]3C(=O)N12 ?
Result: false
